# TEST TARGET: Cyclin-dependent kinase 6 (Homo sapiens)
# Sequence (Q00534 whole entry): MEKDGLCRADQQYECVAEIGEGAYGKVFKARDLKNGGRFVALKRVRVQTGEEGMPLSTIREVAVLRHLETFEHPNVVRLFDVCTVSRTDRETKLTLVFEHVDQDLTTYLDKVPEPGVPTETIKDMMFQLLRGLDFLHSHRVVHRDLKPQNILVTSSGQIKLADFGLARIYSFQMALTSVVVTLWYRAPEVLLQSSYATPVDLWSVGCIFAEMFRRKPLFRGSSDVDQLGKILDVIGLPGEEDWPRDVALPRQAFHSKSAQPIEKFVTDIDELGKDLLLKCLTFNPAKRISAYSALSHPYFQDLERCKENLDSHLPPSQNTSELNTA
# ASSAY DETAILS: Kinase Assay
pIC50: −log10 of the molar value.
Measured pIC50, listed per entry.
MEASURED ENDPOINT: pIC50

{"MOLECULE": "CC(=O)c1c(C)c2cnc(Nc3ccc4c(c3)OCC3CNCCN43)nc2n(C2CCCC2)c1=O (racemic)", "REPORTED MEASUREMENT": "> 7.60"}
{"MOLECULE": "CC(=O)c1c(C)c2cnc(Nc3ccc4c(c3)OC[C@H]3CNCCN43)nc2n(C2CCCC2)c1=O", "REPORTED MEASUREMENT": "> 7.60"}
